# protocol_text: Pharmacokinetics, metabolite profiles and excretion of [14C]-PIC1-dPEG24 after single IV dose
# Assay type: in vivo, rat
# details: rat, in vivo; intact rats, IV 20 and 200 mg/kg; read-out: plasma elimination half-lives for total radioactivity
# Experimental: […]. The six rats in Group 3 and Group 4 were further divided into two subgroups for serial blood collections at 10, 30 min and 1, 2, 3, 4, 6, 8, 24, and 48 hr. Blood was pooled by equal volume across animals at each time point, and aliquots (˜200 μL) of pooled blood were removed at each time point for total radioactivity, and the rest of blood samples were centrifuged to obtain plasma. […]
metric_name: half-life

| compound | metric_name | measured_value |
| --- | --- | --- |
| CC[C@H](C)[C@H](N)C(=O)N[C@@H](C)C(=O)N[C@@H](CC(C)C)C(=O)N[C@H](C(=O)N[C@@H](CC(C)C)C(=O)N[C@@H](CCC(=O)O)C(=O)N1CCC[C@H]1C(=O)N[C@H](C(=O)N[C@@H](CS)C(=O)N[C@@H](CS)C(=O)N[C@@H](CCC(N)=O)C(=O)N[C@@H](CCC(=O)O)C(=O)N[C@@H](CCCNC(=N)N)C(=O)N[C@@H](C)C(=O)N[C@@H](C)C(=O)NCCOCCOCCOCCOCCOCCOCCOCCOCCOCCOCCOCCOCCOCCOCCOCCOCCOCCOCCOCCOCCOCCOCCOCCOCCC(=O)O)[C@@H](C)CC)[C@@H](C)CC [[^14C]-PIC1-dPEG24] | half-life | ≥ 40 h |
